# System: 454973-116-R2-J3-PDC spheroids, viability, % test/control
# RUN_DESCRIPTION: Anticancer human tumor 454973-116-R2-J3-PDC patient-derived pancreatic carcinoma cell line growth inhibition [GQUAD]; active = viability on the fitted dose curve at most 10% of control; inactive = the rest
# RUN_CONDITIONS: second compound 1 µM; first compound 1 µM; spheroids with HUVEC and MSC
Outcome field: choose from active, inactive

>  <COMPOUND>
Nc1ccn(C2OC(CO)C(O)C2(F)F)c(=O)n1 (centres undefined) + CN(C)c1ccc(Nc2c3ccc(NC(=O)CCN4CCCC4)cc3nc3cc(NC(=O)CCN4CCCC4)ccc23)cc1

>  <LABEL>
inactive

$$$$

*Q* Call for entry C#Cc1c(F)ccc2cc(O)cc(-c3ncc4c(N5CC6CCC(C5)N6)nc(OCC56CCCN5CC(F)C6)nc4c3F)c12 (centres undefined) + Cc1cnc(CNC(=O)c2c(=O)c3ccc(N4CCCN(C)CC4)nc3n3c2sc2ccccc23)cn1 :
*A* inactive

*Q* Call for entry O=c1[nH]cc(F)c(=O)[nH]1 + Cc1cnc(CNC(=O)c2c(=O)c3ccc(N4CCCN(C)CC4)nc3n3c2sc2ccccc23)cn1 :
*A* inactive

*Q* // return assay outcome for Nc1ccn(C2OC(CO)C(O)C2(F)F)c(=O)n1 (centres undefined) + Cc1cnc(CNC(=O)c2c(=O)c3ccc(N4CCCN(C)CC4)nc3n3c2sc2ccccc23)cn1
*A* inactive

*Q* Record request — test call for COc1cc(C2c3cc4c(cc3C(OC3OC5COC(C)OC5C(O)C3O)C3COC(=O)C23)OCO4)cc(OC)c1O (centres undefined) + Cc1cnc(CNC(=O)c2c(=O)c3ccc(N4CCCN(C)CC4)nc3n3c2sc2ccccc23)cn1
*A* inactive

*Q* Write down the call the test reported for this compound. Item: CC1COCCN1c1cc(C2(O)CC3CCC(C2)O3)c2cnn(-c3ccn[nH]3)c2n1 (centres undefined) + CN(C)c1ccc(Nc2c3ccc(NC(=O)CCN4CCCC4)cc3nc3cc(NC(=O)CCN4CCCC4)ccc23)cc1
*A* inactive

*Q* Status in this test for CC1COCCN1c1cc(C2(S(C)(=N)=O)CC2)nc(-c2ccnc3[nH]ccc23)n1 (centres undefined) + CN(C)c1ccc(Nc2c3ccc(NC(=O)CCN4CCCC4)cc3nc3cc(NC(=O)CCN4CCCC4)ccc23)cc1 ?
*A* inactive

###

# Tested on: 454973-116-R2-J3-PDC spheroids, viability, % test/control
# RUN_DESCRIPTION: Anticancer human tumor 454973-116-R2-J3-PDC cell line growth inhibition [GQUAD];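 note: spheroids exposed to compounds for seven days; 100% = DMSO vehicle control viability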
# RUN_CONDITIONS: second compound 0.316 µM; first compound 0.1 µM; active compounds read low; spheroids with HUVEC and MSC
MEASURE: viability, T/C (%)
// return numeric value only (unit: %, not printed)

These solved cases illustrate the format of a correct answer.
>  <COMPOUND>
COc1ccc([C@@H](O)c2cc(-c3ncnc4cc(N5CCOCC5)ccc34)c(F)cc2Cl)nn1 + Cc1cnc(CNC(=O)c2c(=O)c3ccc(N4CCCN(C)CC4)nc3n3c2sc2ccccc23)cn1

>  <MEASURED_TARGET>
454973-116-R2-J3-PDC spheroids, viability, % test/control

>  <UNIT_OF_MEASUREMENT>
%

>  <MEAS_VALUE>
66.3

$$$$
>  <COMPOUND>
O=C(NO)c1cnc(N2CCN(S(=O)(=O)c3ccc4ccccc4c3)CC2)nc1 + Cc1cnc(CNC(=O)c2c(=O)c3ccc(N4CCCN(C)CC4)nc3n3c2sc2ccccc23)cn1

>  <MEASURED_TARGET>
454973-116-R2-J3-PDC spheroids, viability, % test/control

>  <UNIT_OF_MEASUREMENT>
%

>  <MEAS_VALUE>
61.9

$$$$
>  <COMPOUND>
O=C(NO)c1cnc(N2CCN(S(=O)(=O)c3ccc4ccccc4c3)CC2)nc1 + Cc1[nH]c2ccc(F)cc2c1-c1nc2c3cccnc3c3ncccc3c2[nH]1

>  <MEASURED_TARGET>
454973-116-R2-J3-PDC spheroids, viability, % test/control

>  <UNIT_OF_MEASUREMENT>
%

>  <MEAS_VALUE>
96.2

$$$$
>  <COMPOUND>
CCCS(=O)(=O)Nc1ccc(F)c(C(=O)c2c[nH]c3ncc(-c4ccc(Cl)cc4)cc23)c1F + CN(C)c1ccc(Nc2c3ccc(NC(=O)CCN4CCCC4)cc3nc3cc(NC(=O)CCN4CCCC4)ccc23)cc1

>  <MEASURED_TARGET>
454973-116-R2-J3-PDC spheroids, viability, % test/control

>  <UNIT_OF_MEASUREMENT>
%

>  <MEAS_VALUE>
101

$$$$

*Q* Query (compound): CC(C)n1c(=O)n(C)c2cnc3cc(F)c(-c4ccc(OCCCN5CCCCC5)nc4)cc3c21 + Cc1cnc(CNC(=O)c2c(=O)c3ccc(N4CCCN(C)CC4)nc3n3c2sc2ccccc23)cn1 ; field requested: viability, T/C
*A* 49
